molecular target: human recombinant mGluR5 (Homo sapiens); experiment: positive modulation of mGluR5, calcium based FLIPR assay; details: HEK 293 cell line expressing human recombinant mGluR5; EC50 of the modulation from peak Ca fluorescence signal after glutamate at approx. 5% basal stimulation
Sequence (P41594 21-1212): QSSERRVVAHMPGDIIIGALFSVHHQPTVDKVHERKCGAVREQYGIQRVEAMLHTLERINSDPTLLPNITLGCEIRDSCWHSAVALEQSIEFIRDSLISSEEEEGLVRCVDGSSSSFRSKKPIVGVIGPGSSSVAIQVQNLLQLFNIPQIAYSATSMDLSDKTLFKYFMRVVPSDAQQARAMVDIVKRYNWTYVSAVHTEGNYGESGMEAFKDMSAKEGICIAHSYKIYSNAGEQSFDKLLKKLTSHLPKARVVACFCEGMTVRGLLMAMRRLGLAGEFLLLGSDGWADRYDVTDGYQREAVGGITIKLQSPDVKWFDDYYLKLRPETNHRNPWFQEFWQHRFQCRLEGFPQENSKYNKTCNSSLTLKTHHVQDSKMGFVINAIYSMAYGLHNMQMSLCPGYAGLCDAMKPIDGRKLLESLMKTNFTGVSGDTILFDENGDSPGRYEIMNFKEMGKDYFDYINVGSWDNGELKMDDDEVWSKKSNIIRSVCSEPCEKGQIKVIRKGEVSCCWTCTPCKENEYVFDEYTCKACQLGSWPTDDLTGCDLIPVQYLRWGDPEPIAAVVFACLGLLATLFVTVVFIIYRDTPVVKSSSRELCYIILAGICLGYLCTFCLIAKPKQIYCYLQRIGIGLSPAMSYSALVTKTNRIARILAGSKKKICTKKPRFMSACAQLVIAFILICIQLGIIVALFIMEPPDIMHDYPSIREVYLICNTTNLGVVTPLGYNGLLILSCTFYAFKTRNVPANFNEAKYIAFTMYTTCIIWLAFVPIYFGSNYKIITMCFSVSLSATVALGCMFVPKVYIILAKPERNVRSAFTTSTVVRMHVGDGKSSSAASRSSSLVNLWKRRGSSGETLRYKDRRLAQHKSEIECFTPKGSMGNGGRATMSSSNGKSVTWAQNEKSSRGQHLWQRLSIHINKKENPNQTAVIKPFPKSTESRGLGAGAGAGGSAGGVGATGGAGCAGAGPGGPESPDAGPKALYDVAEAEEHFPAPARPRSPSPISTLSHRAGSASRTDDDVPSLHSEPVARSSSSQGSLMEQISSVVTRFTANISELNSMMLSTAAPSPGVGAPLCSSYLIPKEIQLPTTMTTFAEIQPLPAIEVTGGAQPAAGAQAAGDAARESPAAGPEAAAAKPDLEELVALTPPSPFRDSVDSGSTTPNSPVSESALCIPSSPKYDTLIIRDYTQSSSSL
log10(EC50) values for the molecules below.
Log10 applied to EC50; unit prior to transform: nM.

Example entries and their recorded answers appear below.
{"substance-smiles": "CCc1cc(-c2ccc(F)cc2)nn1CC(=O)N1CCN(c2cccc(OC)c2)C(=O)C1", "measure": "log10(EC50)", "reading": 2.97}
{"substance-smiles": "Cc1cc(-c2cc(C)n(CC(=O)N3CCc4nc(N)sc4CC3)n2)ccc1F", "measure": "log10(EC50)", "reading": 2.00}

Lab note: Cc1cnc(-c2cc(-c3ccccc3)n(CC(=O)N3CCc4nc(N)sc4CC3)n2)cc1C gave log10(EC50) of 2.30

Lab note: Cc1nc2c(s1)CN(C(=O)Cn1nc(-c3ccc(OC(F)F)cc3)cc1-c1ccccc1)C2 gave log10(EC50) of 1.36

Lab note: Cc1cc(-c2cc(-c3ccccc3)n(CC(=O)N3CCc4nc(N)sc4CC3)n2)ccc1F gave log10(EC50) of 1.08

Lab note: COc1cccc(N2CCN(C(=O)Cn3nc(-c4cc(C)c(C)cn4)cc3-c3ccccc3)CC2=O)c1 gave log10(EC50) of 2.25

Lab note: Cc1nnc(N2CCN(C(=O)Cn3nc(-c4ccc(F)c(C)c4)cc3-c3ccccc3)CC2)o1 gave log10(EC50) of 0.78

Lab note: CCCc1cc(-c2ccc(F)c(C)c2)nn1CC(=O)N1CC=C(c2ncc(C)o2)CC1 gave log10(EC50) of 0.78

Lab note: Cc1nc2c(s1)CCN(C(=O)Cn1nc(-c3ccc(F)c(C)c3)cc1C1CCCCC1)CC2 gave log10(EC50) of 1.49

Lab note: Cc1cc(-c2cc(-c3ccccc3)n(CC(=O)N3CCc4nc(N)sc4CC3)n2)ncc1F gave log10(EC50) of 2.23

Lab note: COc1ccc2c(c1)CCN(C(=O)Cn1nc(-c3ccccc3)cc1-c1ccccc1)CC2 gave log10(EC50) of 3.07

Lab note: Cc1nc2c(o1)CN(C(=O)Cn1nc(-c3ccc(F)c(C)c3)cc1C)CC2 gave log10(EC50) of 2.21

---

target: human recombinant mGluR5 (Homo sapiens); assay: positive modulation of mGluR5, calcium based FLIPR assay; settings: HEK 293 cell line expressing human recombinant mGluR5; EC50 of the modulation from peak Ca fluorescence signal after glutamate at approx. 5% basal stimulation
pEC50 values for the compounds below.
On this scale, pEC50 is minus log10 of a concentration expressed in M (mol/L).

Example entries and their recorded answers appear below.
{"compound": "Cc1nc2c(s1)CN(C(=O)Cn1nc(-c3cccc(C#N)c3)cc1-c1ccccc1)C2 [Example 7.02.191]", "measurement-target": "human recombinant mGluR5 (Homo sapiens)", "pEC50": 7.10}
{"compound": "Cc1cnc(C2CCN(C(=O)Cn3nc(-c4ccc(F)c(C)c4)cc3-c3ccccc3)CC2)s1 [Example 7.02.140]", "measurement-target": "human recombinant mGluR5 (Homo sapiens)", "pEC50": 7.29}

Lab note: Cc1nc2c(s1)CN(C(=O)Cn1nc(-c3ccc(F)c(C)c3)cc1CC(C)C)C2 [Example 7.02.121] gave pEC50 of 7.31

Lab note: CCc1cc(-c2cc(C)c(F)c(C)c2)nn1CC(=O)N1CCc2nc(C)sc2CC1 [Example 7.02.132] gave pEC50 of 6.73
